Target: EPSPS (L. rigidum S population) (Lolium rigidum)
Sequence (A0A5B9T5S8 61-505): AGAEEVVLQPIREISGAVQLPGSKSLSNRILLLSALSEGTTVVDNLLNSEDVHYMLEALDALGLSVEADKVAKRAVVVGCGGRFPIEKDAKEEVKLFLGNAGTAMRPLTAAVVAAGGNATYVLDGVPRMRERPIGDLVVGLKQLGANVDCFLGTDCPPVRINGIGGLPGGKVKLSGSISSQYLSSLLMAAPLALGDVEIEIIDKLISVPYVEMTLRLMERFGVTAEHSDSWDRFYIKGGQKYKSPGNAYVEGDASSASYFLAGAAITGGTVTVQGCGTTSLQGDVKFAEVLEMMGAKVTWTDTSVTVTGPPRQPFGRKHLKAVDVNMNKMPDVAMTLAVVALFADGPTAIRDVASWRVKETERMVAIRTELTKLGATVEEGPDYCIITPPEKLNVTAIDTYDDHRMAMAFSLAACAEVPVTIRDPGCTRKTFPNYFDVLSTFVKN
Assay: phosphate release assay (EnzChek phosphate kit)
Format: biochemical
Settings: partially purified leaf extract; 100 mM MOPS, 1 mM MgCl2, 10% glycerol, 2 mM sodium molybdate, 200 mM NaF; glyphosate 0-1000 μM; range is 95% CI; read-out: I50(μM)(95% CI)^a
Readout kind: IC50 (µM)
Give bare numbers, in µM.

Notebook entry, EPSPS (L. rigidum S population) (Lolium rigidum) assay: IC50 of O=C(O)CNCP(=O)(O)O [glyphosate] = ? 5.1
